Assay: chemical genetic growth profiling, strain panel (AID 1159580);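 further: tested at 20 µM; growth read once vehicle control cultures reached saturation at 30 °C; 1 = growth at the plate median or of vehicle wells; lower values mean less growth of the strain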
Conditions: S. cerevisiae deletion strains, growth OD, locus YFR010W, strain ubp6, active compounds read low
About 2,000 (36%) of roughly 5,500 compounds were called active. Inconclusive results (about 18%) are left out. The list shows a part of the results.
Hi there, I'd appreciate the recorded normalized growth for every entry that follows.
Answers are plain numbers.

Would you please look over these solved cases?
Molecule	normalized growth
CO/N=C1/CN(c2nc3c(cc2F)c(=O)c(C(=O)O)cn3C2CC2)CC1CN (stereo not given)	0.982
CN(C)CCOC(c1ccc(Cl)cc1)c1ccccn1 (stereo not given)	1.03
Cn1c(=O)c2c(ncn2CC(O)CO)n(C)c1=O (stereo not given)	0.967
COc1c(N2CCNC(C)C2)c(F)cc2c(=O)c(C(=O)O)cn(C3CC3)c12 (stereo not given)	0.993
C[n+]1c2cc(N)ccc2cc2ccc(N)cc21	0.536

Give me normalized growth for each of these molecules, listed below.
1. Clc1ccc(C(c2ccc(Cl)cc2)C(Cl)(Cl)Cl)cc1
2. Oc1cc(O)c2c(c1)O[C@H](c1ccc(O)c(O)c1)[C@@H](O)C2
3. CCCCCCCCCCC[C@@H](C[C@H]1OC(=O)[C@H]1CCCCCC)OC(=O)[C@@H](CC(C)C)NC=O
4. CN1CCC(OC(c2ccccc2)c2ccccc2)CC1
5. CCOC(=O)n1ccn(C)c1=S
6. O=S(=O)(O)CCS

1: 1.01; 2: 1.02; 3: 1.05; 4: 0.963; 5: 0.955; 6: 1.01

List the reported normalized growth of each molecule below.
1. CCn1cc(C(=O)O)c(=O)c2cc(F)c(N3CCNC(C)C3)c(F)c21 (stereo not given)
2. N=c1ccn2c(n1)OC1C(O)C(CO)OC12 (stereo not given)
3. COc1ccc(OC)c(C(O)CNC(=O)CN)c1 (stereo not given)
4. C[C@]12CCC(=O)C=C1C=CC1C2CC[C@@]2(C)C1CC[C@@]21CCC(=O)O1 (stereo not given in full)

1: 1; 2: 0.998; 3: 1.01; 4: 0.986

---

Experiment: chemical genetic growth profiling, strain panel (AID 1159580);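 further: tested at 20 µM; growth read once vehicle control cultures reached saturation at 30 °C; 1 = growth at the plate median or of vehicle wells; lower values mean less growth of the strain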
Details: S. cerevisiae deletion strains, growth OD, locus YLR320W, strain mms22, active compounds read low
The whole screen tested about 5,500 compounds, of which about 2,000 (36%) were called active. Roughly 18% stayed inconclusive and do not appear here. The list shows a part of the results.
Readout Name: normalized growth
Numbers only.

Example entries begin here.
                                   compound  assay_value
0                      CCOC(=O)n1ccn(C)c1=S        0.931
1  O=C(/C=C/c1ccc(O)c(O)c1)OC(Cc1ccc(O)c(O)c1)C(=O)O (configuration not stated)            1
2                 O=C(O)/C=C/c1ccc(O)c(O)c1         1.02
3                          C=CCc1ccc(OC)cc1         1.03
4                      COc1ccc(C(=O)O)cc1OC            1
5  COC(=O)C1=COC(OC2OC(CO)C(O)C(O)C2O)C2C(C)CC(=O)C12 (configuration not stated)         1.04

// Input: O=C(/C=C/c1ccc(O)c(O)c1)OCCc1ccccc1 . Output its normalized growth only.
0.453
